Source of measurements: BindingDB's records for doi:10.1021/jm061152t

Attribute: pEC50
- Assay: The binding affinities (Ki) of compounds were determined using fluorescence polarization assays (FPA) that measure their ability to competitively displace a Bad-derived peptide from Bcl-xL. IC50 values were binding affinities measured in the presence of 10% human serum. Compound efficacy (EC50) in a cellular co
- Conditions Used: pH 7.4
pEC50: −log10 of the molar value.
Quantity: pEC50

                     structure_smiles_string   val
 0  COC1(CC(C)(C)C)CCN(c2ccc(C(=O)NS(=O)(=O)c3ccc(N[C@H](CCN(C)C)CSc4ccccc4)c([N+](=O)[O-])c3)cc2)CC1  6.12
 1  COC1(Cc2ccc(Cl)cc2)CCN(c2ccc(C(=O)NS(=O)(=O)c3ccc(N[C@H](CCN(C)C)CSc4ccccc4)c([N+](=O)[O-])c3)cc2)CC1  6.40
 2  CN(C)CC[C@H](CSc1ccccc1)Nc1ccc(S(=O)(=O)NC(=O)c2ccc(N3CCC(=Cc4ccccc4F)CC3)cc2)cc1[N+](=O)[O-]  6.60
 3  CN(C)CC[C@H](CSc1ccccc1)Nc1ccc(S(=O)(=O)NC(=O)c2ccc(N3CCC(=Cc4ccccc4C#N)CC3)cc2)cc1[N+](=O)[O-]  5.96
 4  CN(C)CC[C@H](CSc1ccccc1)Nc1ccc(S(=O)(=O)NC(=O)c2ccc(N3CCC(=Cc4ccccc4C(F)(F)F)CC3)cc2)cc1[N+](=O)[O-]  6.82
 5  COC1(CC(C)C)CCN(c2ccc(C(=O)NS(=O)(=O)c3ccc(N[C@H](CCN(C)C)CSc4ccccc4)c([N+](=O)[O-])c3)cc2)CC1  6.24
 6  CN(C)CC[C@H](CSc1ccccc1)Nc1ccc(S(=O)(=O)NC(=O)c2ccc(N3CCC(=Cc4ccc(Cl)cc4)CC3)cc2)cc1[N+](=O)[O-]  6.21
 7  COC1(Cc2ccccc2Br)CCN(c2ccc(C(=O)NS(=O)(=O)c3ccc(N[C@H](CCN(C)C)CSc4ccccc4)c([N+](=O)[O-])c3)cc2)CC1  7.00
 8  COC1(CC2CCCCC2)CCN(c2ccc(C(=O)NS(=O)(=O)c3ccc(N[C@H](CCN(C)C)CSc4ccccc4)c([N+](=O)[O-])c3)cc2)CC1  6.49
 9  CN(C)CC[C@H](CSc1ccccc1)Nc1ccc(S(=O)(=O)NC(=O)c2ccc(N3CCC(=Cc4ccc(C(F)(F)F)cc4)CC3)cc2)cc1[N+](=O)[O-]  5.59
10  COc1ccccc1C=C1CCN(c2ccc(C(=O)NS(=O)(=O)c3ccc(N[C@H](CCN(C)C)CSc4ccccc4)c([N+](=O)[O-])c3)cc2)CC1  6.52
11  COC1(Cc2ccccc2)CCN(c2ccc(C(=O)NS(=O)(=O)c3ccc(N[C@H](CCN(C)C)CSc4ccccc4)c([N+](=O)[O-])c3)cc2)CC1  6.17
12  COc1ccccc1CC1(OC)CCN(c2ccc(C(=O)NS(=O)(=O)c3ccc(N[C@H](CCN(C)C)CSc4ccccc4)c([N+](=O)[O-])c3)cc2)CC1  6.82
13  COC1(Cc2ccccc2-c2ccccc2)CCN(c2ccc(C(=O)NS(=O)(=O)c3ccc(N[C@H](CCN(C)C)CSc4ccccc4)c([N+](=O)[O-])c3)cc2)CC1  7.46
14  COC1(Cc2ccccc2Cl)CCN(c2ccc(C(=O)NS(=O)(=O)c3ccc(N[C@H](CCN(C)C)CSc4ccccc4)c([N+](=O)[O-])c3)cc2)CC1  6.64
15  COC1(Cc2ccc(-c3ccccc3)cc2)CCN(c2ccc(C(=O)NS(=O)(=O)c3ccc(N[C@H](CCN(C)C)CSc4ccccc4)c([N+](=O)[O-])c3)cc2)CC1  6.22
16  COC1(Cc2cccc(Cl)c2)CCN(c2ccc(C(=O)NS(=O)(=O)c3ccc(N[C@H](CCN(C)C)CSc4ccccc4)c([N+](=O)[O-])c3)cc2)CC1  6.60
17  COC1(Cc2ccccc2C)CCN(c2ccc(C(=O)NS(=O)(=O)c3ccc(N[C@H](CCN(C)C)CSc4ccccc4)c([N+](=O)[O-])c3)cc2)CC1  6.82
18  CN(C)CC[C@H](CSc1ccccc1)Nc1ccc(S(=O)(=O)NC(=O)c2ccc(N3CCC(=Cc4ccccc4Cl)CC3)cc2)cc1[N+](=O)[O-]  6.46
19  COC1(Cc2ccccc2F)CCN(c2ccc(C(=O)NS(=O)(=O)c3ccc(N[C@H](CCN(C)C)CSc4ccccc4)c([N+](=O)[O-])c3)cc2)CC1  6.74

* * *

- Tgt: UniProt Q07817
- Sequence (Q07817 whole entry): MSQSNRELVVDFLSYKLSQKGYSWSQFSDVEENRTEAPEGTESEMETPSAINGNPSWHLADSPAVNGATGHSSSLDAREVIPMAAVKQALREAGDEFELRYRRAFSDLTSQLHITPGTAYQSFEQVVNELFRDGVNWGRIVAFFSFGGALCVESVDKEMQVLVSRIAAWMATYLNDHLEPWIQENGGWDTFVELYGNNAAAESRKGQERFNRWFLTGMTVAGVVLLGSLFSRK
- Assay: Fluorescence Polarization (FP) Assay and FL5.12 Cellular Assay
- Conditions Used: pH 7.4; 25 °C
pEC50: −log10 of the molar value.
Quantity: pEC50

>>> print(df.to_string())
                    structure_smiles_string  quantity   val
0  CCCCC1(OC)CCN(c2ccc(C(=O)NS(=O)(=O)c3ccc(N[C@H](CCN(C)C)CSc4ccccc4)c([N+](=O)[O-])c3)cc2)CC1     pEC50  5.10

* * *

- Tgt: Apoptosis regulator Bcl-2 (Homo sapiens, UniProt P10415)
- Sequence (P10415 whole entry): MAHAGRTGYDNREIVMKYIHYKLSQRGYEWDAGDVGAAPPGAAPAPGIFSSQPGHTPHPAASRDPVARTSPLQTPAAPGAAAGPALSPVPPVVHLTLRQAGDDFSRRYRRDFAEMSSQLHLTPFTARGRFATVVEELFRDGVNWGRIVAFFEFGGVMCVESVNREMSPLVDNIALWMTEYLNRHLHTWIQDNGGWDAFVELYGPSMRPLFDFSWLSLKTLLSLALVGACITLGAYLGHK
- Assay: Fluorescence Polarization Assay and FL5.12 Cellular Assay
pEC50: −log10 of the molar value.
Quantity: pEC50

                    structure_smiles_string                                       tgt   val
0  CCCCC1(OC)CCN(c2ccc(C(=O)NS(=O)(=O)c3ccc(N[C@H](CCN(C)C)CSc4ccccc4)c([N+](=O)[O-])c3)cc2)CC1  Apoptosis regulator Bcl-2 (Homo sapiens, UniProt P10415)  5.52

* * *

- Assay: The binding affinities (Ki) of compounds were determined using fluorescence polarization assays (FPA) that measure their ability to competitively displace a Bad-derived peptide from Bcl-xL. Compound efficacy (EC50) in a cellular context was evaluated by testing their ability to reverse the protection from cytokine w
pEC50: −log10 of the molar value.
Quantity: pEC50

>>> print(df.to_string())
                    structure_smiles_string  value_operator   val
0  CN(C)CC[C@H](CSc1ccccc1)Nc1ccc(S(=O)(=O)NC(=O)c2ccc(N3CCN(C(=O)Nc4ccccc4)CC3)cc2)cc1[N+](=O)[O-]               <  4.30
1  COC1(Cc2cccc(Cl)c2)CCN(c2ccc(C(=O)NS(=O)(=O)c3ccc(N[C@H](CCN(C)C)CSc4ccccc4)c([N+](=O)[O-])c3)cc2)CC1               =  6.52
2  COC1(Cc2ccccc2-c2ccccc2)CCN(c2ccc(C(=O)NS(=O)(=O)c3ccc(N[C@H](CCN(C)C)CSc4ccccc4)c([N+](=O)[O-])c3)cc2)CC1               =  7.70

* * *

- Assay: The binding affinities (Ki) of compounds were determined using fluorescence polarization assays (FPA) that measure their ability to competitively displace a Bad-derived peptide from Bcl-xL. Compound efficacy (EC50) in a cellular context was evaluated by testing their ability to reverse the protection from cytokine w
Quantity: log10 of EC50 (log10 of the value in µM)

>>> print(df.to_string())
                     structure_smiles_string       quantity    val
 0  COC1(CC(C)(C)C)CCN(c2ccc(C(=O)NS(=O)(=O)c3ccc(N[C@H](CCN(C)C)CSc4ccccc4)c([N+](=O)[O-])c3)cc2)CC1  log10 of EC50   0.00
 1  CN(C)CC[C@H](CSc1ccccc1)Nc1ccc(S(=O)(=O)NC(=O)c2ccc(N3CCC(=Cc4ccccc4C#N)CC3)cc2)cc1[N+](=O)[O-]  log10 of EC50   0.20
 2  COc1ccccc1CC1(OC)CCN(c2ccc(C(=O)NS(=O)(=O)c3ccc(N[C@H](CCN(C)C)CSc4ccccc4)c([N+](=O)[O-])c3)cc2)CC1  log10 of EC50  -0.60
 3  COC1(Cc2ccccc2Cl)CCN(c2ccc(C(=O)NS(=O)(=O)c3ccc(N[C@H](CCN(C)C)CSc4ccccc4)c([N+](=O)[O-])c3)cc2)CC1  log10 of EC50  -0.74
 4  COC1(CC2CCCCC2)CCN(c2ccc(C(=O)NS(=O)(=O)c3ccc(N[C@H](CCN(C)C)CSc4ccccc4)c([N+](=O)[O-])c3)cc2)CC1  log10 of EC50  -0.70
 5  COC1(Cc2ccccc2F)CCN(c2ccc(C(=O)NS(=O)(=O)c3ccc(N[C@H](CCN(C)C)CSc4ccccc4)c([N+](=O)[O-])c3)cc2)CC1  log10 of EC50  -1.00
 6  CN(C)CC[C@H](CSc1ccccc1)Nc1ccc(S(=O)(=O)NC(=O)c2ccc(N3CCC(=Cc4ccccc4Cl)CC3)cc2)cc1[N+](=O)[O-]  log10 of EC50  -0.35
 7  COC1(Cc2ccccc2C)CCN(c2ccc(C(=O)NS(=O)(=O)c3ccc(N[C@H](CCN(C)C)CSc4ccccc4)c([N+](=O)[O-])c3)cc2)CC1  log10 of EC50  -0.70
 8  CN(C)CC[C@H](CSc1ccccc1)Nc1ccc(S(=O)(=O)NC(=O)c2ccc(N3CCC(=Cc4ccc(F)cc4)CC3)cc2)cc1[N+](=O)[O-]  log10 of EC50  -0.22
 9  COc1ccccc1C=C1CCN(c2ccc(C(=O)NS(=O)(=O)c3ccc(N[C@H](CCN(C)C)CSc4ccccc4)c([N+](=O)[O-])c3)cc2)CC1  log10 of EC50  -0.60
10  COC1(Cc2ccccc2)CCN(c2ccc(C(=O)NS(=O)(=O)c3ccc(N[C@H](CCN(C)C)CSc4ccccc4)c([N+](=O)[O-])c3)cc2)CC1  log10 of EC50  -0.03
